# Assay info: Inhibition of rabbit hind leg tissue microsomes ATPase activity of SERCA assessed as ATP hydrolysis
# Parameters: species or system Oryctolagus cuniculus
pIC50: −log10 of the molar value.
Outcome measure: pIC50

In the examples that follow, each entry is paired with its recorded pIC50.
COc1ccc(C(C)c2cc(C(C)(C)C)c(O)c(C(C)(C)C)c2)cc1 (stereo unspecified)	4.34
CC(=O)C1=C(O)[C@@H]2[C@H]3c4c[nH]c5cccc(c45)C[C@H]3C(C)(C)N2C1=O	6.92
CC(C)(C)c1ccc(O)c(C(c2cc(C(C)(C)C)ccc2O)c2cc(C(C)(C)C)ccc2O)c1	4.67
CC(c1ccccc1)(c1ccccc1)c1ccc(O)cc1	4.30
CC(C)(C)c1ccc(O)c(Cc2cc(C(C)(C)C)ccc2O)c1	4.93
CC(C)(C)c1cc2c(cc1O)CCC2	4.55
Oc1ccc2ccccc2c1Cc1cccc2ccccc12	4.56
CC(C)(C)c1cc(O)c(C(C)(C)C)cc1O	6.40

1 = CC(c1ccccc1)c1cc(C(C)(C)C)cc(C(C)(C)C)c1O (stereo unspecified)
2 = CC(C)CCCCCCc1ccc(O)cc1
[in] Between the entries labelled 1 and 2 , which has a larger pIC50 value on record? Refer to your chosen item by its label in the answer.
[out] 2
(2: 4.76, 1: 4.47)
